# Test system: 292921-168-R-J2-PDC KRAS tumor spheroid viability;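 also: drug exposure lasted seven days after spheroids formed for three days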
# PROCEDURE_DETAILS: Anticancer human tumor 292921-168-R-J2-PDC patient-derived pancreatic carcinoma cell line growth inhibition [KRAS2]
# PROTOCOL_CONDITIONS: curve of first compound; second compound 0.1 µM; spheroids with HUVEC and MSC
pIC50: −log10 of the molar value.
MEASURED_PARAMETER: pIC50

### Prompt Value lookup for pIC50; key = CC1COCCN1c1cc(-c2ccnn2C)c2ccnc(-c3ccn[nH]3)c2n1 (stereo not drawn) + COc1cc2nc(C)nc(NC(C)c3cc(N)cc(C(F)(F)F)c3)c2cc1OC1CCOC1
### Response > 8.00

### Prompt Value lookup for pIC50; key = CN(C)C/C=C/C(=O)Nc1cc2c(Nc3ccc(F)c(Cl)c3)ncnc2cc1O[C@H]1CCOC1 + C=CC(=O)N1CCN(c2nc(=O)n(-c3c(C)ccnc3C(C)C)c3nc(-c4c(O)cccc4F)c(F)cc23)C(C)C1
### Response < 7.00

### Prompt Value lookup for pIC50; key = Cn1ncnc1[C@H]1c2n[nH]c(=O)c3cc(F)cc(c23)N[C@@H]1c1ccc(F)cc1 + C=CC(=O)N1CCN(c2nc(=O)n(-c3c(C)ccnc3C(C)C)c3nc(-c4c(O)cccc4F)c(F)cc23)C(C)C1
### Response < 7.00
